assay: Thermodynamic solubility in water at 5 mg incubated for 48 hrs by HPLC method; assay type: physicochemical; settings: read-out: Therm_solubility

[
  {
    "compound-smiles": "COc1cncc(N2CCc3nc(NC(C)=O)sc3C2)c1",
    "solubility thermodynamic at 48 h": "12.1 µg/mL"
  }
]
